- Tested on: P12-ICHIKAWA;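 further: ALL cell lines in 384-well plates, five doses spanning 10,000-fold, each plate scaled between vehicle and 100 µmol/L benzalkonium chloride controls, sDSS an adapted area-under-curve metric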
- protocol text: selective drug sensitivity score (sDSS, relative to normal bone marrow) (sDSS (score)); higher = more potent and effective on the cell line relative to normal bone marrow cells
- experimental parameters: 72 h
Label 1 when selective drug sensitivity score is at or above 1; otherwise label 0.

molecule	target entity	discrete label
CO[C@H](C(=O)[C@@H](O)[C@@H](C)O)[C@@H]1Cc2cc3cc(O[C@H]4C[C@@H](O[C@H]5C[C@@H](O)[C@H](O)[C@@H](C)O5)[C@@H](O)[C@@H](C)O4)c(C)c(O)c3c(O)c2C(=O)[C@H]1O[C@H]1C[C@@H](O[C@H]2C[C@@H](O[C@H]3C[C@](C)(O)[C@H](O)[C@@H](C)O3)[C@H](O)[C@@H](C)O2)[C@H](O)[C@@H](C)O1 [Plicamycin] (top concentration 10000 nM)	P12-ICHIKAWA	0
CC(C)C[C@H](NC(=O)[C@@H](COC(C)(C)C)NC(=O)[C@H](Cc1ccc(O)cc1)NC(=O)[C@H](CO)NC(=O)[C@H](Cc1c[nH]c2ccccc12)NC(=O)[C@H](Cc1cnc[nH]1)NC(=O)[C@@H]1CCC(=O)N1)C(=O)N[C@@H](CCCNC(=N)N)C(=O)N1CCC[C@H]1C(=O)NNC(N)=O [Goserelin] (top concentration 10000 nM)	P12-ICHIKAWA	0
C=CC(=O)Nc1cccc(Oc2nc(Nc3ccc(N4CCN(C)CC4)cc3)nc3ccsc23)c1 [Olmutinib] (top concentration 1000 nM)	P12-ICHIKAWA	0
CC(=O)c1cc2c(o1)C(=O)c1ccccc1C2=O [Napabucasin] (top concentration 20000 nM)	P12-ICHIKAWA	0
O=c1[nH]c(=O)n([C@H]2C[C@H](O)[C@@H](CO)O2)cc1C(F)(F)F [Trifluridine] (top concentration 10000 nM)	P12-ICHIKAWA	1
C=CC(=O)Nc1cc(Nc2nccc(-c3cn(C)c4ccccc34)n2)c(OC)cc1N(C)CCN(C)C [Osimertinib] (top concentration 2500 nM)	P12-ICHIKAWA	0

We next turn to a different molecule, shown below.
[Q] Kindly determine if selective drug sensitivity score recorded for CCCCCCCCc1ccc(CCC(N)(CO)CO)cc1 [Fingolimod] (top concentration 10000 nM) is above or exactly 1.
[A] 0
